Provenance of the data: patent US20220306744A1

Target System: T1, human PD-1 expressed on cells (CHO TREX human PD1 cell line, full-length human PD-1 sequence) (human, UniProt Q15116 21-288)
T1 construct: Also used for human PD-1 on Jurkat reporter cells, on PathHunter cells and on PHA-stimulated human CD4+ T cells; also called CHO human PD1 cells; CHO human PD-1 cells
T1 sequence (Q15116 21-288): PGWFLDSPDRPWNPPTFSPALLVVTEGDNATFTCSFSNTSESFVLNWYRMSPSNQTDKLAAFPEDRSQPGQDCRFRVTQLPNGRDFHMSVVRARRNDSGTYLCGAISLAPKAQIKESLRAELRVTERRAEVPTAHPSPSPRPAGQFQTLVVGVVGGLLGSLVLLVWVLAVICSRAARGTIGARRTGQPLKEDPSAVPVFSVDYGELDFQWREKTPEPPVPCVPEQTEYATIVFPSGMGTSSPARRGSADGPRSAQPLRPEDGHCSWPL
Assay Notes: FMAT: inhibition of human Fc tagged human PD-L1 (400 pM) binding to CHO human PD-1 cells
pIC50: −log10 of the molar value.
Result Type: pIC50

[[record]]
binder = "1.92b-4GS-1.39a (other, Biparatopic VH-linker-VH; built from its parts here because it is not clear whether 1112 is the protein or the nucleic acid) EVQLVESGGGLVKPGGSLRLSCAASGFTFSDESMTWMRQAPGKGLEWVSYISSGGGVKFYADSVKGRFTISRDNAKNSLYLQMNSLRAEDTAVYYCAREAPLRLGESPHDAFDISGQGTMVTVSSGGGGSGGGGSGGGGSGGGGSEVQLVESGGGLVQPGRSLRLSCAASGFTFDDYALHWVRQAPGKDLEWVSGISWNGGSYGYADSVKGRFTISRDNAKNSLYLQMNSLRAEDTALYYCVREKGPGLTGSTADYYGLDAWGQGTMVTVSS"
result_type = "pIC50"
recorded_measurement = 8.84

[[record]]
binder = "1.92b-4GS-1.62a (other, Biparatopic VH-linker-VH; also called 1.92-4GS-1.62a; 1.92b-4gs-2.12a) EVQLVESGGGLVKPGGSLRLSCAASGFTFSDESMTWMRQAPGKGLEWVSYISSGGGVKFYADSVKGRFTISRDNAKNSLYLQMNSLRAEDTAVYYCAREAPLRLGESPHDAFDISGQGTMVTVSSGGGGSGGGGSGGGGSGGGGSEVQLVESGGGVVRPGGSLRLSCAASGFTFDDYAMSWVRQAPGKGLEWVSGITWNAGSTGYADSVKGRFTISRDNAKNSLYLQMNSLRAEDTALYYCVRDKYSYAWSYDDFDIWGQGTMVTVSS"
result_type = "pIC50"
recorded_measurement = 8.92

[[record]]
binder = "1.57b (VHH) VHH: QVQLVESGGGLVKPGGSLRLSCAASGFTFSDNSMTWMRQAPGKGLEWVSYISSGGGVIFYADSVKGRFTISRDNAKNSLYLQMNSLRADDTAVYYCAREAPLRLGESPHDAFDISGQGTMVTVSS"
result_type = "pIC50"
recorded_measurement = 8.74

[[record]]
binder = "1.57b-4GS-1.1a (other, Biparatopic VH-linker-VH) QVQLVESGGGLVKPGGSLRLSCAASGFTFSDNSMTWMRQAPGKGLEWVSYISSGGGVIFYADSVKGRFTISRDNAKNSLYLQMNSLRADDTAVYYCAREAPLRLGESPHDAFDISGQGTMVTVSSGGGGSGGGGSGGGGSGGGGSEVQLLESGGGSVQPGRSLRLSCAASGFTFDDHAMHWVRQAPGKGLEWVSGISWNSGSMGYADSVKDRFTISRDNAKSSLYLQMNSLRAEDTALYYCVREKGPGLTGSTADYYGLDVWGQGTMVTVSS"
result_type = "pIC50"
recorded_measurement = 9.05

